ASSAY TARGET: T1, human histidine-rich glycoprotein (HRG), purified from human plasma (human, UniProt P04196 19-525)
T1 construct: also called human purified HRG; human purified HRG protein
T1 sequence: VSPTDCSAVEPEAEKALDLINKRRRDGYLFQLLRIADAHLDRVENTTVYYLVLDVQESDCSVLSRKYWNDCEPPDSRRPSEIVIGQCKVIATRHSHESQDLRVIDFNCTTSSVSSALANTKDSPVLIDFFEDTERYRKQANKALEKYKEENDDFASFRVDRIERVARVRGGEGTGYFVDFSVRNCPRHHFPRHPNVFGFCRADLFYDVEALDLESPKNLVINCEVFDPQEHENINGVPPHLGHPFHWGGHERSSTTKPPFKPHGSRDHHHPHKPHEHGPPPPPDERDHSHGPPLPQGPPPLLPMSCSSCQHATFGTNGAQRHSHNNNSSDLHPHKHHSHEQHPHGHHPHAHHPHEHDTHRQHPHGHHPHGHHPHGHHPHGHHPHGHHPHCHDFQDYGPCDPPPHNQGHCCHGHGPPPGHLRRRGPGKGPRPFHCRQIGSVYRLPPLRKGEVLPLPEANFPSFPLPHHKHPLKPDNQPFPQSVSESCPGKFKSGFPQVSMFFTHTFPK
MEASUREMENT PROTOCOL: sandwich ELISA, HRG captured by solid phase 13-2G
PROPERTY MEASURED: absorbance at 450 nm

Request: Assign absorbance at 450 nm to the following record: anti-HRG monoclonal antibody 67-8A-5F (antibody, V domains shown, Mouse hybridoma monoclonal) VH: EVQLQESGPGLVKPSQSLSLTCTVTGYSITSDYAWNWIRQFPGNKLEWMGYISYSGSTSYNPSLKSRISITRDTSKNQFFLQLNSVTTEDTATYYCASASYRYAWFAYWGQGTLVTVSA VL: DIQMTQTTSSLSASLGDRVTISCRASQDISNYLNWYQQKPDGTVKLLIYYTSRLLSGVPSRFSGSGSGTDYSLTISNLEQEDIATYFCQQGNTLPTFGGGTKLEIK
Response: < 1 OD
